test system: German cockroaches; experiment: Topical toxicity evaluation on adult German cockroaches, mortality (dead/moribund) at 24 hours; assay type: in vivo, Blattella germanica (German cockroach); settings: Table 17; composite data; amounts in label
Each item that follows carries a reported Proportion dead at 24 h.
# answer = number (no unit)

Past entries and their recorded results:
INSERT INTO assay_data (molecule, quantity_name, recorded_number) VALUES
  ('CCC(C)=O', 'Proportion dead at 24 h', 0.083),
  ('CCCCCC', 'Proportion dead at 24 h', 0.100),
  ('CC(Cl)(Cl)Cl [Methyl chloroform (71-55-6) (2.00 mg), Methyl chloroform]', 'Proportion dead at 24 h', 0.095),
  ('CC(=O)OCC(COC(C)=O)OC(C)=O', 'Proportion dead at 24 h', 0.033),
  ('C1CCOC1 [Tetrahydrofuran (109-99-9) (0.80 mg), Tetrahydrofuran]', 'Proportion dead at 24 h', 0.300);

Quick check: Proportion dead at 24 h of COCOC ?
0.000

Record: CC(=O)CC(C)C
0.048

----------
Each item that follows carries a reported Proportion dead at 24 h.
tested on: German cockroaches; test: Topical toxicity evaluation on adult German cockroaches, mortality (dead/moribund) at 24 hours; assay type: in vivo, Blattella germanica (German cockroach); conditions: Table 17; composite data; amounts in label
# answer = number (no unit)

Past entries and their recorded results:
INSERT INTO measurements (compound, recorded_number) VALUES
  ('c1ccncc1 [Pyridine (110-86-1) (0.10 mg), Pyridine]', 0.032),
  ('O=C1CCCO1 [gamma butyrolactone (96-48-0) (0.25 mg), gamma butyrolactone]', 0.407),
  ('CC(=O)OC(C)C [Isopropyl acetate (108-21-4) (1.0 mg), Isopropyl acetate]', 0.150),
  ('CCOCC [diethyl ether (60-29-7) (2.0 mg), diethyl ether]', 0.000),
  ('CCOCCO [2-ethoxyethanol]', 0.033);

Quick check: Proportion dead at 24 h of COC(C)(C)C [Methyl t-butyl ether] ?
0.227

Record: ClCCl [Dichloromethane]
0.000

Record: ClC(Cl)Cl [Chloroform-anhydrous (67-66-3) (2.0 mg), Chloroform]
0.050

Record: Cc1ccccc1 [Toluene (108-88-3) (0.90 mg), Toluene]
0.000

Record: CN1CCCC1=O [n-methyl pyrrolidone]
0.100
